TARGET_UNDER_TEST: EP4 subtype of the human PGE2 receptor (Homo sapiens)
Sequence (P35408 whole entry): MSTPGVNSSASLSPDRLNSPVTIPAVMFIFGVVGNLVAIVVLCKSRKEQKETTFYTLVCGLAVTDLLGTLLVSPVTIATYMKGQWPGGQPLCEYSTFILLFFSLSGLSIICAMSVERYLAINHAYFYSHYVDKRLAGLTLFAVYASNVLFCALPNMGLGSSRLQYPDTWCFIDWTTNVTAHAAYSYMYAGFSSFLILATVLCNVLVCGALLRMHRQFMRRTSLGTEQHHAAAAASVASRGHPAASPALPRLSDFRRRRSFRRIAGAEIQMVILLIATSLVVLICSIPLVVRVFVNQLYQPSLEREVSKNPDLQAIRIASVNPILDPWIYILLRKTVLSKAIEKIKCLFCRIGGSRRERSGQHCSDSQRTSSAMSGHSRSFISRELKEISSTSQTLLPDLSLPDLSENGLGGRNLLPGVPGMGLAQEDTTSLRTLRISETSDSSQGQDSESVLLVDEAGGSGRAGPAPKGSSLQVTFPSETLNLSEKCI
EXPERIMENTAL_DETAILS: cAMP antagonism test on the human EP4 receptor (HTRF cAMP detection)
Type: cell-based
SETTINGS: selectivity towards hEP4, IC50 measured by cAMP antagonism test
MEASUREMENT_KIND: Selectivity hEP2/hEP4

1) Cc1c(C(=O)NCCS(C)(=O)=O)ccc2nn(CC3CCN(C(=O)c4ccc(Oc5ccc(C(F)(F)F)cc5)cc4)CC3)cc12: xxx (xxx > 100)
2) Cc1c(C(=O)NCC2CCCCO2)ccc2nn(CC3CCN(C(=O)c4ccc(Cl)cc4)CC3)cc12 (single isomer, unassigned) [Example 241]: xxx (xxx > 100)
3) COc1c(C(=O)NCCSC(F)(F)F)ccc2nn(CC3CCN(C(=O)c4ccc(Cl)cc4)CC3)cc12: xxx (xxx > 100)

---

TARGET_UNDER_TEST: EP2 subtype of the human PGE2 receptor (Homo sapiens, UniProt P43116)
Sequence (P43116 whole entry): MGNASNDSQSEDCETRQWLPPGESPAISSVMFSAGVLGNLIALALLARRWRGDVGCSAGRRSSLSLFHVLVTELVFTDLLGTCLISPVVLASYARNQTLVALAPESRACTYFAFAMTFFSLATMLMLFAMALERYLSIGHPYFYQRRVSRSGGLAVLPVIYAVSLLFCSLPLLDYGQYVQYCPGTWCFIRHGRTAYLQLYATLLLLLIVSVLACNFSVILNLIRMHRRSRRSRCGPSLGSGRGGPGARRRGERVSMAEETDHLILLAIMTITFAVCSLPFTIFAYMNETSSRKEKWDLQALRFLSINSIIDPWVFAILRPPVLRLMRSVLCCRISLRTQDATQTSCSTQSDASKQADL
EXPERIMENTAL_DETAILS: cAMP antagonism test on the human EP2 receptor (HTRF cAMP detection)
Type: cell-based
SETTINGS: hEP2 receptor, read-out: Antagonism hEP2 IC50
MEASUREMENT_KIND: pIC50
pIC50 is a log-scale quantity: -log10 of the concentration expressed in molar.

1) COCCNC(=O)c1cc2cn(CC3CCN(C(=O)c4ccc(C(F)(F)F)cc4F)CC3)nc2cc1C [Example 206]: 7.38
2) Cc1c(C(=O)NCC(C)OCC2CC2)ccc2nn(CC3CCN(C(=O)c4ccc(Oc5ccc(F)cc5)cc4)CC3)cc12 (racemic) [Example 103]: 6.23
3) COCCNC(=O)c1ccc2nn(CC3CCN(C(=O)c4ccc(OC(C)(C)C)cc4)CC3)cc2c1C [Example 2]: 7.66
4) COCCNC(=O)c1ccc2nn(CC3CCN(C(=O)c4ccc(-c5cccc(C(F)(F)F)c5)cc4F)CC3)cc2c1C [Example 45]: 8.26
5) COCCNC(=O)c1ccc2nn(CC3CCN(C(=O)c4ccc5ccc(OC)cc5c4)CC3)cc2c1C [Example 344]: 7.99
6) Cc1ccc(C(=O)N2CCC(Cn3cc4c(C)c(C(=O)NCCOC(C)C)ccc4n3)CC2)cc1 [Example 97]: 7.90

Exam item: Lab note: need pIC50 for COCCNC(=O)c1ccc2nn(CC3CCN(C(=O)c4ccc(S(F)(F)(F)(F)F)cc4)CC3)cc2c1C [Example 11] on EP2 subtype of the human PGE2 receptor (Homo sapiens, UniProt P43116), anyone have it?
Marked response: 8.09

---

TARGET_UNDER_TEST: UniProtKB P43116
EXPERIMENTAL_DETAILS: cAMP antagonism test on the human EP2 receptor (HTRF cAMP detection)
Assay type: cell-based
SETTINGS: hEP2 receptor, read-out: Antagonism hEP2 IC50
pIC50: −log10 of the molar value.
Reported pIC50 maps to class as: interval 1: < 7; interval 2: ≥ 7 and < 8; interval 3: ≥ 8

Exam item: Which class holds COCCNC(=O)c1ccc2nn(CC3CCN(C(=O)c4cccc(C(F)(F)F)c4)CC3)cc2c1C ?
Marked response: interval 2

Exam item: Which class holds Cc1c(C(=O)NCC2CCCCO2)ccc2nn(CC3CCN(C(=O)c4ccc(Cl)cc4)CC3)cc12 (single isomer, unassigned) [Example 240] ?
Marked response: interval 2

Exam item: Which class holds Cc1c(C(=O)NCC(F)(F)F)ccc2nn(CC3CCN(C(=O)c4ccc(SC(F)(F)F)cc4)CC3)cc12 ?
Marked response: interval 2

Exam item: Which class holds Cc1c(C(=O)NCC(F)(F)F)ccc2nn(CC3CN(C(=O)c4ccc(Oc5ccc(Cl)cc5)cc4)C3)cc12 ?
Marked response: interval 2

Exam item: Which class holds Cc1c(C(=O)NCC(F)(F)F)ccc2nn(CC3CN(C(=O)c4ccc(OC(F)(F)F)cc4)C3)cc12 ?
Marked response: interval 1

---

TARGET_UNDER_TEST: EP2 subtype of the human PGE2 receptor (Homo sapiens)
EXPERIMENTAL_DETAILS: cAMP antagonism test on the human EP2 receptor (HTRF cAMP detection)
Format: cell-based
SETTINGS: hEP2 receptor, read-out: Antagonism hEP2 IC50
pIC50: −log10 of the molar value.
pIC50 vs 7: at or above is Condition met, below is Condition not met.

1) Cc1cc2nn(CC3CN(C(=O)c4ccc(OC(F)(F)F)cc4)C3)cc2cc1C(=O)NCC(F)(F)F [Example 195]: Condition not met
2) COCCNC(=O)c1ccc2nn(CC3CN(C(=O)c4ccc(Oc5ccc(C(F)(F)F)cn5)cc4)C3)cc2c1C [Example 174]: Condition met
3) COCCNC(=O)c1ccc2nn(CC3CCN(C(=O)c4cc5ccccc5n4C)CC3)cc2c1C [Example 29]: Condition met
4) Cc1cc2nn(CC3CN(C(=O)c4ccc(Cl)cc4)C3)cc2cc1C(=O)NCC1CCCCO1 (racemic) [Example 191]: Condition met
5) Cc1ncc(-c2ccc(C(=O)N3CCC(Cn4cc5c(C)c(C(=O)NCC(F)(F)F)ccc5n4)CC3)cc2)cn1 [Example 327]: Condition not met

Next up:
Exam item: Is reported pIC50 greater than or equal to 7 here: Cc1c(C(=O)NCC(F)(F)F)ccc2nn(CC3CCN(C(=O)c4ccc(Oc5ccc(C#N)cn5)cc4)CC3)cc12 [Example 310]
Marked response: Condition not met

---

TARGET_UNDER_TEST: human PGD receptor (Homo sapiens)
Sequence (Q13258 whole entry): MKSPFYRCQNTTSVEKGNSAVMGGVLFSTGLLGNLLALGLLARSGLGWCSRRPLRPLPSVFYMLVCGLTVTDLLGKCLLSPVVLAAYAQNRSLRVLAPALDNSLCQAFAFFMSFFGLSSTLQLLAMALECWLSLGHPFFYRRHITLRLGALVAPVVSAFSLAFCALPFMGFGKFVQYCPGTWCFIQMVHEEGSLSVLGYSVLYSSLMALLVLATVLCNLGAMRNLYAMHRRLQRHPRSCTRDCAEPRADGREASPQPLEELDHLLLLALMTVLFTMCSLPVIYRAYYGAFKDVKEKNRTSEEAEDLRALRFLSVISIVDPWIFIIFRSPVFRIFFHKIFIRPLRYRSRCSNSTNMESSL
EXPERIMENTAL_DETAILS: cAMP antagonism test on the human prostaglandin D receptor (HTRF cAMP detection)
Assay type: cell-based
SETTINGS: selectivity towards hDP, IC50 measured by cAMP antagonism test
MEASUREMENT_KIND: Selectivity hEP2/hDP

1) COCCNC(=O)c1ccc2nn(CC3CCN(C(=O)c4ccc(-c5ccncc5)c(C)c4)CC3)cc2c1C: xxx (xxx > 100)
2) Cc1c(C(=O)NCC#N)ccc2nn(CC3CCN(C(=O)c4ccc(Cl)cc4)CC3)cc12: xxx (xxx > 100)
3) Cc1c(C(=O)NCCN2CCOCC2)ccc2nn(CC3CCN(C(=O)c4ccc(S(F)(F)(F)(F)F)cc4)CC3)cc12: xx (xx: 10-100)
4) COCCNC(=O)c1ccc2nn(CC3CCN(C(=O)c4ccc(Oc5ncccn5)cc4)CC3)cc2c1C: xxx (xxx > 100)
5) COCCNC(=O)c1ccc2nn(CC3CN(C(=O)c4ccc(Oc5ccc(Cl)cc5)cc4)C3)cc2c1C: xxx (xxx > 100)
6) Cc1c(C(=O)NCCOCC2CC2)ccc2nn(CC3CN(C(=O)c4ccc(Cl)cc4)C3)cc12: xxx (xxx > 100)
7) COc1c(C(=O)NCCN2CCOCC2)ccc2nn(CC3CN(C(=O)c4ccc(Cl)cc4)C3)cc12: xxx (xxx > 100)
8) COCCNC(=O)c1ccc2nn(CC3CCN(C(=O)c4ccc(OC)cc4F)CC3)cc2c1C: xxx (xxx > 100)
9) COCCNC(=O)c1ccc2nn(CC3CCN(C(=O)c4ccc(Oc5cccc(C(F)(F)F)n5)cc4)CC3)cc2c1C: xxx (xxx > 100)
10) Cc1c(C(=O)NCCS(C)(=O)=O)ccc2nn(CC3CCN(C(=O)c4ccc(-c5ccc(F)cc5F)cc4)CC3)cc12: xxx (xxx > 100)

Exam item: I have this compound here, COCCNC(=O)c1ccc2nn(CC3CCN(C(=O)c4ccc(N5CCCC5)cc4F)CC3)cc2c1C , and I need its recorded Selectivity hEP2/hDP.
Marked response: xxx (xxx > 100)

Exam item: I have this compound here, Cc1c(C(=O)NCC2COCCO2)ccc2nn(CC3CCN(C(=O)c4ccc(Oc5ccc(C(F)(F)F)cc5)cc4)CC3)cc12 (single isomer, unassigned) [Example 418] , and I need its recorded Selectivity hEP2/hDP.
Marked response: xxx (xxx > 100)

---

TARGET_UNDER_TEST: EP2 subtype of the human PGE2 receptor (Homo sapiens, UniProt P43116)
EXPERIMENTAL_DETAILS: cAMP antagonism test on the human EP2 receptor (HTRF cAMP detection)
Assay type: cell-based
SETTINGS: hEP2 receptor, read-out: IC50
MEASUREMENT_KIND: pIC50
pIC50 is a log-scale quantity: -log10 of the concentration expressed in molar.

Exam item: Lab note: need pIC50 for COCCNC(=O)c1ccc2nn(CC3CCN(C(=O)c4ccc(Oc5ccc(C(F)(F)F)cc5)cc4)CC3)cc2c1C [Example 17] on EP2 subtype of the human PGE2 receptor (Homo sapiens, UniProt P43116), anyone have it?
Marked response: 8.47

---

TARGET_UNDER_TEST: human PGD receptor (Homo sapiens)
EXPERIMENTAL_DETAILS: cAMP antagonism test on the human prostaglandin D receptor (HTRF cAMP detection)
Format: cell-based
SETTINGS: selectivity towards hDP, IC50 measured by cAMP antagonism test
MEASUREMENT_KIND: Selectivity hEP2/hDP

Use the examples below as a reference point.
1) Cc1cc2nn(CC3CCN(C(=O)c4ccc(OC(F)(F)F)cc4)CC3)cc2cc1C(=O)NCCN1CCOCC1: xxx (xxx > 100)
2) CCc1c(C(=O)NCCOC)ccc2nn(CC3CCN(C(=O)c4ccc(Cl)cc4)CC3)cc12: xxx (xxx > 100)
3) COCCNC(=O)c1ccc2nn(CC3CCN(C(=O)c4ccc(-c5ccc(OC)cc5C)cc4)CC3)cc2c1C: xxx (xxx > 100)
4) COCCNC(=O)c1ccc2nn(CC3CCN(C(=O)c4ccc(OC(C)C)cc4F)CC3)cc2c1C: xxx (xxx > 100)
5) Cc1c(C(=O)NCC(F)(F)F)ccc2nn(CC3CCN(C(=O)c4ccc(Oc5cccc(F)c5)cc4)CC3)cc12: xxx (xxx > 100)
6) COCCNC(=O)c1ccc2nn(CC3CCN(C(=O)c4ccc(-c5ccc(OC)cc5)cc4)CC3)cc2c1C: xxx (xxx > 100)

Now look at this one.
Exam item: Lab note: need Selectivity hEP2/hDP for COCCNC(=O)c1ccc2nn(CC3CN(C(=O)c4ccc5cc(OC)ccc5c4)C3)cc2c1C on human PGD receptor (Homo sapiens), anyone have it?
Marked response: xxx (xxx > 100)
